- Test system: WiDr colorectal adenocarcinoma cells
- Assay name: cells
- Test settings: Homo sapiens, 72 h
Measure: IC50 (µM)

> print(dat)
                                   molecule  measure  reading
1  CC(=O)O[C@@H](C)/C=C\C(=O)N[C@H]1CC[C@@H](C/C=C(C)/C=C/[C@@H]2C[C@]3(CO3)CC(C)(C)O2)CC1 [compound 3a]     IC50        2
